- Test system: RAW-Dual
- measurementNotes: NF-kB SEAP reporter activity, fold change vs agonist alone; cytotoxicity flag (confluency mask): cytotoxic (confluency <70% of control); higher = enhanced NF-kB activity
- runParameters: agonist: Pam3CSK4 (TLR2/1) 0.1 ug/mL
In all, about 2,900 compounds were measured (“NF-kB SEAP reporter activity, fold change vs agonist alone”: median about 0.99, highest 2% from about 2.6 on). Shown is part of a subset that was picked to be rich in the highest values.
measurementType: NF-kB SEAP reporter activity

GET /values?readout=NF-kB SEAP reporter activity&item= C=CC1CC1(NC(=O)C1CC(Oc2ncc(OC)c3ccc(Cl)cc23)CN1C(=O)C(NC(=O)OC(C)(C)C)C(C)(C)C)C(=O)NS(=O)(=O)C1CC1 (stereo not given) (library stock concentration (final ~1000-fold dilution): 10 mM)
0.508

GET /values?readout=NF-kB SEAP reporter activity&item= COc1ccc(-c2oc3c(CC=C(C)C)c(O)cc(O)c3c(=O)c2OC2OC(C)C(O)C(O)C2O)cc1 (stereo not given) (library stock concentration (final ~1000-fold dilution): 10 mM)
0.457

GET /values?readout=NF-kB SEAP reporter activity&item= O=C(CCCCCN1C(=O)c2cccc3cccc(c23)C1=O)NO (library stock concentration (final ~1000-fold dilution): 10 mM)
2.06

GET /values?readout=NF-kB SEAP reporter activity&item= O=C(c1ccc(Oc2ccccc2)cc1Cl)c1c[nH]c2ncnc(NC3CCC(CO)OC3)c12 (stereo not given) (library stock concentration (final ~1000-fold dilution): 10 mM)
0.129

GET /values?readout=NF-kB SEAP reporter activity&item= CNC(C)C(=O)NC(C(=O)N1CCCC1c1nc(C(=O)c2ccc(F)cc2)cs1)C1CCCCC1 (stereo not given) (library stock concentration (final ~1000-fold dilution): 10 mM)
0.517

* * *

- Test system: RAW-Dual
- measurementNotes: NF-kB SEAP reporter activity, fold change vs agonist alone; cytotoxicity flag (confluency mask): not cytotoxic; higher = enhanced NF-kB activity
- runParameters: agonist: ODN 1826 (TLR9) 0.5 ug/mL
Whole data set: some 2,900 compounds, median “NF-kB SEAP reporter activity, fold change vs agonist alone” near 0.99, cut for the highest 2% near 2.6. The entries come from a sample that favours the highest values as a whole.
Measured NF-kB SEAP reporter activity values are reported for all entries that follow.
Write no unit; give the number alone.

Here is how some compounds turned out for NF-kB SEAP reporter activity.
COc1cc2ncc(-c3ccccc3)nc2cc1OC (library stock concentration (final ~1000-fold dilution): 10 mM): 1.28
O=C1C(Cc2ccc(O)cc2)N2C(=O)CCN(C(=O)NCc3ccccc3)C2CN1Cc1cccc2ccccc12 (configuration not stated) (library stock concentration (final ~1000-fold dilution): 10 mM): 1.08
Cn1cc(-c2ccc3ncc(Cc4ccc5ncccc5c4)n3n2)cn1 (library stock concentration (final ~1000-fold dilution): 10 mM): 1.35

GET /values?readout=NF-kB SEAP reporter activity&item= CC1OC(=O)C(C)C1CC(O)C(C)(O)C1CCC2(O)C3=CC(=O)C4CC(O)C(O)CC4(C)C3CCC12C (configuration not stated) (library stock concentration (final ~1000-fold dilution): 10 mM)
1.02

GET /values?readout=NF-kB SEAP reporter activity&item= C[N+]1(C)CCC[C@H]1C(=O)O (library stock concentration (final ~1000-fold dilution): 10 mM)
1.08

GET /values?readout=NF-kB SEAP reporter activity&item= Nc1ccn(C2CSC(CO)O2)c(=O)n1 (configuration not stated) (library stock concentration (final ~1000-fold dilution): 10 mM)
1.03

* * *

- System: RAW-Dual
- measurementNotes: NF-kB SEAP reporter activity, fold change vs agonist alone; cytotoxicity flag (confluency mask): cytotoxic (confluency <70% of control); higher = enhanced NF-kB activity
- runParameters: agonist: Pam2CSK4 (TLR2/6) 0.1 ug/mL
Over roughly 2,900 compounds, “NF-kB SEAP reporter activity, fold change vs agonist alone” has its median near 0.99; the highest 2% begin near 2.6. The full list was thinned out, with the highest values kept by preference.
Measured NF-kB SEAP reporter activity values are reported for all entries that follow.
Write no unit; give the number alone.

Here is how some molecules turned out for NF-kB SEAP reporter activity.
CCS(=O)(=O)Nc1ccc(Oc2ccc(F)cc2F)c(-c2cn(C)c(=O)c3[nH]ccc23)c1 (library stock concentration (final ~1000-fold dilution): 10 mM): 0.424
Cl.Nc1ncccc1-c1nc2ccc(-c3ccccc3)nc2n1-c1ccc(C2(N)CCC2)cc1 (library stock concentration (final ~1000-fold dilution): 10 mM): 0.921
Cl.NC(=O)c1cnc(NC2CCCCC2N)nc1Nc1cccc(-n2nccn2)c1 (stereo unspecified) (library stock concentration (final ~1000-fold dilution): 10 mM): 0.315
O=C(NO)c1cnc(NC2(c3ccccc3)CC2)nc1 (library stock concentration (final ~1000-fold dilution): 10 mM): 0.654

Could you now look at the following molecule, please?
GET /values?readout=NF-kB SEAP reporter activity&item= O=[N+]([O-])c1ccc(S(=O)(=O)N2CCN(c3ccnc4cc(Cl)ccc34)CC2)c([N+](=O)[O-])c1 (library stock concentration (final ~1000-fold dilution): 10 mM)
0.229

* * *

- Tested on: RAW-Dual
- measurementNotes: NF-kB SEAP reporter activity, fold change vs agonist alone; cytotoxicity flag (confluency mask): not cytotoxic; higher = enhanced NF-kB activity
- runParameters: agonist: ODN 1826 (TLR9) 0.5 ug/mL
Over roughly 2,900 compounds, “NF-kB SEAP reporter activity, fold change vs agonist alone” has its median near 0.99; the highest 2% begin near 2.6. For the sample, the highest values were picked, then their nearest neighbours and some compounds at random.
Measured NF-kB SEAP reporter activity values are reported for all entries that follow.

Here is how some compounds turned out for NF-kB SEAP reporter activity.
CCC1OC(=O)C(C)(F)C(=O)C(C)C(OC2OC(C)CC(N(C)C)C2O)C(C)(OC)CC(C)C(=O)C(C)C2N(CCCCn3cc(-c4cccc(N)c4)nn3)C(=O)OC12C (stereo not drawn) (library stock concentration (final ~1000-fold dilution): 10 mM): 0.196
CCOC(=O)Nc1cc(-c2ccc(C)c(NS(C)(=O)=O)c2)nn2c(C)nnc12 (library stock concentration (final ~1000-fold dilution): 10 mM): 1.93

Could you now look at the following compound, please?
GET /values?readout=NF-kB SEAP reporter activity&item= CS(=O)(=O)c1ccc(C(=O)Nc2ccc(Cl)c(-c3ccccn3)c2)c(Cl)c1 (library stock concentration (final ~1000-fold dilution): 10 mM)
1.4

* * *

- System: RAW-Dual
- measurementNotes: NF-kB SEAP reporter activity, fold change vs agonist alone; higher = enhanced NF-kB activity
- runParameters: library stock concentration (final ~1000-fold dilution): 10 mM; cytotoxicity flag (confluency mask): not cytotoxic; agonist: MPLA (TLR4) […]
Whole data set: some 2,900 compounds, median “NF-kB SEAP reporter activity, fold change vs agonist alone” near 0.99, cut for the highest 2% near 2.6. For the sample, the highest values were picked, then their nearest neighbours and some compounds at random.
Measured NF-kB SEAP reporter activity values are reported for all entries that follow.
Write no unit; give the number alone.

GET /values?readout=NF-kB SEAP reporter activity&item= CCCC(NC1CCc2cc(F)cc(F)c2C1)C(=O)Nc1cn(C(C)(C)CNCC(C)(C)C)cn1 (centres undefined)
0.669

GET /values?readout=NF-kB SEAP reporter activity&item= Nc1nc(NC2CC2)c2ncn(C3C=CC(CO)C3)c2n1 (centres undefined)
1.16

* * *

- Tested on: RAW-Dual
- measurementNotes: NF-kB SEAP reporter activity, fold change vs agonist alone; cytotoxicity flag (confluency mask): not cytotoxic; higher = enhanced NF-kB activity
- runParameters: agonist: LPS (TLR4) 0.1 ug/mL
In all, about 2,900 compounds were measured (“NF-kB SEAP reporter activity, fold change vs agonist alone”: median about 0.99, highest 2% from about 2.6 on). The list comes from a sample in which the highest values are over-represented; it also holds close analogues and randomly drawn compounds.
Measured NF-kB SEAP reporter activity values are reported for all entries that follow.

Here is how some compounds turned out for NF-kB SEAP reporter activity.
O=C(O)c1ccc(CSc2nc(-c3ccccc3)cc(N3CCN(c4ccccc4Cl)CC3)n2)cc1 (library stock concentration (final ~1000-fold dilution): 10 mM): 0.736
CC(Nc1cc(F)cc(F)c1)c1cc(C(=O)N(C)C)cc2c(=O)cc(N3CCOCC3)oc12 (stereo not given) (library stock concentration (final ~1000-fold dilution): 10 mM): 1.67
Cn1nc(C(C)(C)C)cc1C(=O)NC(Cc1cccc(Cl)c1)C(=O)NCC#N (stereo not given) (library stock concentration (final ~1000-fold dilution): 10 mM): 1.13
COc1ccccc1N1CCN(CC(O)COc2cccc3ccccc23)CC1.Cl.Cl (stereo not given) (library stock concentration (final ~1000-fold dilution): 10 mM): 0.815

Could you now look at the following compound, please?
GET /values?readout=NF-kB SEAP reporter activity&item= COc1cc(CCC(=O)CC(O)CCc2ccc(O)c(OC)c2)ccc1O (stereo not given) (library stock concentration (final ~1000-fold dilution): 10 mM)
1.4
